assay_comment: Cytotoxicity assay (MTT viability)
Assay type: cell-based, Mouse
setup_conditions: mouse; RAW 264.7 cells, MTT, 24 h treatment, serum free
result_type: IC50 at 24 h (µM)
Dear colleague, please return just the value in µM, with no unit written.

O=C(Cc1ccccc1)S[C@@]12CC[C@@H](O)[C@@H]1C(=O)NC2=O (relative stereo) ... 774
O=C(S[C@]12CCC[C@H]1C(=O)NC2=O)c1ccccc1Cl (relative stereo) ... 834
CC(=O)S[C@]12CC[C@@H](O)[C@H]1C(=O)NC2=O (relative stereo) ... 558
O=C(S[C@@]12CC[C@@H](O)[C@@H]1C(=O)NC2=O)c1ccc(F)cc1 (relative stereo) ... 474
O=C(S[C@]12CCC[C@H]1C(=O)NC2=O)c1ccc(F)cc1 (relative stereo) ... 384
O=C(S[C@@]12CC[C@H](O)[C@@H]1C(=O)NC2=O)c1ccc(O)cc1 [(+)-1] ... 1020
CC(=O)OC1CC[C@]2(SC(=O)c3ccccc3Cl)C(=O)NC(=O)[C@H]12 (relative stereo) ... 9080
CC(=O)S[C@@]12CC[C@@H](O)[C@@H]1C(=O)NC2=O (relative stereo) ... 857
O=C(SC1CC[C@]2(SC(=O)c3ccc(F)cc3)C(=O)NC(=O)[C@H]12)c1ccc(F)cc1 (relative stereo) ... 211
O=C(S[C@@]12CC[C@@H](O)[C@@H]1C(=O)NC2=O)c1ccc(O)cc1 (racemic) [(±)-2] ... 434

Input: Please supply the value of reported IC50 at 24 h for the item O=C1NC(=O)C2=C1CCC2O (stereo in doubt) [(+)-4]
Output: 217

Input: Please supply the value of reported IC50 at 24 h for the item O=C(S[C@]12CC[C@H](O)[C@H]1C(=O)NC2=O)c1ccc(O)cc1 [(−)-2]
Output: 1380

Input: Please supply the value of reported IC50 at 24 h for the item O=C(S[C@@]12CC[C@H](O)[C@@H]1C(=O)NC2=O)c1ccccc1Cl (relative stereo)
Output: 668

Input: Please supply the value of reported IC50 at 24 h for the item O=C(S[C@@]12CC[C@@H](O)[C@@H]1C(=O)NC2=O)c1ccccc1Cl (relative stereo)
Output: 717

Input: Please supply the value of reported IC50 at 24 h for the item O=C1NC(=O)C2=C1CCC2SC(=O)c1cccs1 (stereo not shown)
Output: 26.7

Input: Please supply the value of reported IC50 at 24 h for the item CC(=O)SC12CCC=C1C(=O)NC2=O (stereo not shown)
Output: 184

---

Readings of pIC50 for the listed compounds
System: LPS induced NO generation in RAW 264.7 cells
assay_comment: Inhibition of LPS induced NO generation (nitrite, Griess reagent)
Assay type: cell-based, Mouse
setup_conditions: Mus musculus, RAW264.7, 24 h, read-out: NO inhibition (B) IC50
pIC50 here: minus log base 10 of the concentration, concentration in moles per litre.

Reference set, count: 2
CC(=O)SC1CC[C@]2(SC(C)=O)C(=O)NC(=O)[C@H]12 (relative stereo) [Compound 28] ... 4.70
O=C(SC1CC[C@]2(SC(=O)c3ccc(F)cc3)C(=O)NC(=O)[C@H]12)c1ccc(F)cc1 (relative stereo) [Compound 23] ... 4.01

Input: Identify measured pIC50 obtained with LPS induced NO generation in RAW 264.7 cells for CC(=O)OC1CC[C@]2(SC(=O)Cc3ccccc3)C(=O)NC(=O)[C@H]12 (relative stereo) [Compound 32] .
Output: 4.17
